# procedure-text: NCI Yeast Anticancer Drug Screen. Data for the rad50 strain (AID 155);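 further: 0% = growth of vehicle-only cultures of the same strain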
# assay-conditions: S. cerevisiae rad50 strain growth inhibition; at 50.0 µM; stronger effect = higher value
The panel holds about 79,000 compounds, 15% with a hit somewhere; the sample as a whole holds those more often.
test-readout: growth inhibition (%)
Numbers only; they are read as %.

# annotated cases, reported growth inhibition shown
- compound: "CC(=O)[O-].O=[N+]([O-])c1ccc([O-])c(C=NCCN=Cc2cc([N+](=O)[O-])ccc2[O-])c1.[Mn+3]"
  units: "%"
  growth inhibition: 91.8
- compound: "O=C(COc1ccc(Cl)c(Cl)c1)Nc1ccc[n+](Cc2ccc(S(=O)(=O)F)cc2Cl)c1"
  units: "%"
  growth inhibition: 52.5
- compound: "CCCCCCCCCCC(=O)O.[Pb]"
  units: "%"
  growth inhibition: 55.5
- compound: "C/C(=N\\NC(N)=O)C(CN(C)C)C(c1ccccc1)c1c(O)c2ccccc2oc1=O (stereo not given)"
  units: "%"
  growth inhibition: 15.8

Noted for O=C(c1ccccc1)c1c(CC(O)c2cccnc2)n(C(=O)c2ccccc2)c2ccccc12 (stereo not given) : its growth inhibition reads 91

The reported measurements were obtained from PubChem BioAssay (NCI).
